measurement-description: Single intravenous dose pharmacokinetic study
condition-parameters: male ICR mice, 5 mg/kg intravenous, n = 3
quantity: CL (mL/min/kg)
One number for each entry, in mL/min/kg.

These recorded examples may help you get a feel for the data.
{"columns": ["compound", "unit-label", "observed-measurement"],
 "data": [
  ["COc1cc2cc(c1Cl)N(C)C(=O)C[C@H](OC(=O)[C@H](C)N(C)C(=O)CCSSCCC(=O)NCc1ccc(CNC(=O)COCCOCCOCC(=O)N(CCCCOc3cc(CN(Cc4ccccn4)Cc4ccccn4)cc(CN(Cc4ccccn4)Cc4ccccn4)c3)Cc3ccc(-c4ccccc4)cc3)cc1)[C@]1(C)O[C@H]1[C@H](C)[C@@H]1C[C@@](O)(NC(=O)O1)[C@H](OC)/C=C\\C=C(/C)C2.O=[N+]([O-])[O-].O=[N+]([O-])[O-].O=[N+]([O-])[O-].O=[N+]([O-])[O-].[Zn+2].[Zn+2]", "mL/min/kg", 2.5],
  ["CCCCCC(=O)Nc1cccc(CN(Cc2cc(CN(Cc3ccccn3)Cc3cccc(NC(=O)CCCCC)n3)cc(OCCCCN(Cc3ccc(C(=O)NCCOCCOCCNC(=O)CCSSC(C)(C)CCC(=O)N(C)C(C)C(=O)OC4CC(=O)N(C)c5cc(cc(OC)c5Cl)CC(C)=CC=CC(OC)C5(O)CC(OC(=O)N5)C(C)C5OC45C)cc3)C(=O)C3(c4ccc(Cl)cc4)CCCCC3)c2)Cc2ccccn2)n1.O=[N+]([O-])[O-].O=[N+]([O-])[O-].O=[N+]([O-])[O-].O=[N+]([O-])[O-].[Zn+2].[Zn+2] (stereo not drawn)", "mL/min/kg", 1.0]
]}

Now consider a different compound.
(Q) GET /values?readout=CL&item= "CCCCCC(=O)Nc1cccc(CN(Cc2cc(CN(Cc3ccccn3)Cc3cccc(NC(=O)CCCCC)n3)cc(OCCCCNC(=O)COCCOCCOCC(=O)NCc3ccc(CNC(=O)CCSSCCC(=O)N(C)[C@@H](C)C(=O)O[C@H]4CC(=O)N(C)c5cc(cc(OC)c5Cl)C/C(C)=C/C=C\[C@@H](OC)[C@@]5(O)C[C@H](OC(=O)N5)[C@@H](C)[C@@H]5O[C@@]45C)cc3)c2)Cc2ccccn2)n1.O=[N+]([O-])[O-].O=[N+]([O-])[O-].O=[N+]([O-])[O-].O=[N+]([O-])[O-].[Zn+2].[Zn+2]"
(A) 6.0
